target: MAT2A recombinant protein (Homo sapiens, UniProt P31153); assay: MAT2A inhibitory activity (malachite green colorimetric enzyme assay); type: biochemical; settings: IC50 score class; read-out: MAT2A Inhibition (score)
Sequence (P31153 whole entry): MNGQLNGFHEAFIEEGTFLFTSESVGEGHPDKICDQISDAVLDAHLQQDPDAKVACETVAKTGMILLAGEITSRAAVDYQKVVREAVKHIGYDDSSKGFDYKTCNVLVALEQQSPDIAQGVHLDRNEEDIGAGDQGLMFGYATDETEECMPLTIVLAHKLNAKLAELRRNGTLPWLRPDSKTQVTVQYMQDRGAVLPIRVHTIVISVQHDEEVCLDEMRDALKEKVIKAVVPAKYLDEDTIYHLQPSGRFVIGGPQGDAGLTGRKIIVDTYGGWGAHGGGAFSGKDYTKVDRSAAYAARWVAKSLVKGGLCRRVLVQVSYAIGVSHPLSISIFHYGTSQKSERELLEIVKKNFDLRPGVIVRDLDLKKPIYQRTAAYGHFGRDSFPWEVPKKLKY
pIC50: −log10 of the molar value.
Entries annotated with measured pIC50

Examples with answers:
| SMILES NOTATION | pIC50 |
| --- | --- |
| Cn1cc2c(n1)c(=O)n(-c1cccc(F)c1)c1nc(C(F)(F)F)ccc21 | > 7.00 |
| Cn1cc2c(n1)c(=O)n(-c1cncc(O)c1)c1nc(C(F)(F)F)ccc21 | > 7.00 |
| Cc1c2c(nn1C(F)F)c(=O)n(-c1cccc3[nH]ncc13)c1nc(C(F)(F)F)ccc21 | > 7.00 |

Query :: pIC50 lookup needed for Cn1cnc2c(=O)n(-c3ccc4ccccc4c3)c3nc(C(F)(F)F)ccc3c21 , thanks.
Result :: < 6.00

Query :: pIC50 lookup needed for Cn1cc2c(n1)c(=O)n(-c1cccnc1C(F)(F)F)c1cc(Cl)ccc21 , thanks.
Result :: > 7.00

Query :: pIC50 lookup needed for Cn1cnc2c(=O)n(-c3ccc4ccccc4n3)c3nc(C(F)(F)F)ccc3c21 , thanks.
Result :: < 6.00

Query :: pIC50 lookup needed for Cc1ncccc1-n1c(=O)c2nn(C)cc2c2ccc(OC(F)(F)F)cc21 , thanks.
Result :: > 7.00

Query :: pIC50 lookup needed for O=c1c2nn(Cc3cccnc3)cc2c2ccc(Cl)cc2n1-c1cccnc1 , thanks.
Result :: > 7.00

* * *

assay: Pharmacokinetic test in rats (IV and PO); type: in vivo; conditions: rat, plasma; SD rats, IV 1 mg/kg
METRIC NAME: clearance (mL/min/kg)

| SMILES NOTATION | UNIT STRING | clearance |
| --- | --- | --- |
| CCn1cc2c(n1)c(=O)n(-c1cccc(F)c1)c1cc(Cl)ccc21 | mL/min/kg | 21.7 |

[1] Cn1cc2c(n1)c(=O)n(-c1cccnc1C1CC1)c1cc(Cl)c(F)cc21
[2] O=c1c2n[nH]cc2c2cc(F)c(Cl)cc2n1-c1cccnc1C1CC1
Query :: Which value of clearance is smaller, the one for 1 or the one for 2 ? Could you answer with the label of the item you picked?
Result :: 2

[P] COc1ccc(Cn2cc3c(n2)c(=O)n(-c2cccnc2)c2cc(Cl)ccc32)cc1
[Q] Cn1cc2c(n1)c(=O)n(-c1cccnc1)c1cc(Cl)ccc21
Query :: Which value of clearance is smaller, the one for P or the one for Q ? Could you answer with the label of the item you picked?
Result :: Q

* * *

test: Pharmacokinetic test in mice (IV and PO); format: in vivo; conditions: mouse, plasma; BALB/c mice, IV 2 mg/kg, PO 5 mg/kg
METRIC NAME: bioavailability (%)
# output: bare number, implied unit %

Query :: bioavailability lookup needed for Cn1cc2c(n1)c(=O)n(-c1cccc3[nH]ncc13)c1cc(Cl)c(C#N)cc21 , thanks.
Result :: 93

* * *

experiment: Stability test in liver microsomes, mouse; format: in vitro ADME, CD-1 mice; details: CD-1; mouse liver microsomes 0.5 mg/mL, 1.0 μM substrate, up to 60 min; read-out: Metabolic half-life in mouse liver microsome (T½, min)
METRIC NAME: half-life at 1 μM (min)

| SMILES NOTATION | METRIC NAME | UNIT STRING | RESULT NUMBER |
| --- | --- | --- | --- |
| Cn1cc2c(n1)c(=O)n(-c1ccccc1Cl)c1nc(C(F)(F)F)ccc21 | half-life at 1 μM | min | 136 |
| Cn1cc2c(n1)c(=O)n(-c1cccc(O)c1)c1nc(C(F)(F)F)ccc21 | half-life at 1 μM | min | 120 |

Just for reference, patent US20240391923A1 is where these values come from.
